- TEST_TARGET: T1, full-length human CD36-Flag overexpressed on stable F293 cells (human, UniProt P16671 2-472)
- T1 construct: Gene segment from Sino Biological; also called F293/hCD36; hCD36; not shown: Flag tag
- T1 sequence (P16671 2-472): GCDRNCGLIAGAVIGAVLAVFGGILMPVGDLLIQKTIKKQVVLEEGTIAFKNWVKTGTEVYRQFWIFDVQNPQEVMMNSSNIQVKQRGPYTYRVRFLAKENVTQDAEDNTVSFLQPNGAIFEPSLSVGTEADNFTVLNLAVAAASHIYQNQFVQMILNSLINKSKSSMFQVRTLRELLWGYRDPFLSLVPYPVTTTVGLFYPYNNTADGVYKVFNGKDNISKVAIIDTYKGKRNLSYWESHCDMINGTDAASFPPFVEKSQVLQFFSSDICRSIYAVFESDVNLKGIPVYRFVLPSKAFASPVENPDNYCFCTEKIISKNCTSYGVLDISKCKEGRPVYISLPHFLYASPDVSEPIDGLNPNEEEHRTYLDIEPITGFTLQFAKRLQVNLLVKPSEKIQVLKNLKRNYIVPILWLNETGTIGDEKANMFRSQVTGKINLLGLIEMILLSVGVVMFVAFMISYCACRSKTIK
- TEST_DETAILS: flow cytometry, F293 cells overexpressing human CD36
EC50 listing for selected binders.
VALUE_KIND: EC50 (µg/mL)

>  <BINDER>
117_57DE (antibody, V domains shown, full-length IgG, human kappa) VH: EVQLVESGGGLVQPGGSLRLSCAASGFTISSFGIHWVRQAPGKGLEWVAWIAPYGGDEYYADSVKGRFTISADTSKNTAYLQMNSLRAEDTAVYYCARSFFGYFDYWGQGTLVTVSS VL: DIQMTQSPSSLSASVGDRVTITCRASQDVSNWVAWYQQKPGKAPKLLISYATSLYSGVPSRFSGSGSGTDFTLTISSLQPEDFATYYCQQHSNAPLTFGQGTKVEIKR

>  <TEST_VALUE>
0.129

$$$$
>  <BINDER>
117_57D (antibody, V domains shown, full-length IgG, human kappa) VH: EVQLVESGGGLVQPGGSLRLSCAASGFTISSFGIHWVRQAPGKGLEWVAWIAPYGGDTYYADSVKGRFTISADTSKNTAYLQMNSLRAEDTAVYYCARSFFGYFDYWGQGTLVTVSS VL: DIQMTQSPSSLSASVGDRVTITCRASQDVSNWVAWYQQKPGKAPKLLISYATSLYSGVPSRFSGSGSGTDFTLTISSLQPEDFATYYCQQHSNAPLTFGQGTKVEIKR

>  <TEST_VALUE>
0.111

$$$$
>  <BINDER>
117_57EE (antibody, V domains shown, full-length IgG, human kappa) VH: EVQLVESGGGLVQPGGSLRLSCAASGFTISSFGIHWVRQAPGKGLEWVAWIAPYGGEEYYADSVKGRFTISADTSKNTAYLQMNSLRAEDTAVYYCARSFFGYFDYWGQGTLVTVSS VL: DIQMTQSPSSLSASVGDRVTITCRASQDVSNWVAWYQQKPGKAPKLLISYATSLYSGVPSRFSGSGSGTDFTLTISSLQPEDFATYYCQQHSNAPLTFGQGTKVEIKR

>  <TEST_VALUE>
0.093

$$$$
